Listed compounds paired with reported Plant response rating, Foxtail, Giant
Tested on: giant foxtail (Setaria faberii)
Test: Test B pre-/postemergence plant response
Type: in vivo
Settings: Postemergence, 250 g ai/ha; scale 0 to 100 (0 no effect, 100 complete control); 13 to 15 days
Answer as a number with no unit attached.

Would you please look over these solved cases?
compound	Plant response rating, Foxtail, Giant
CCCCn1c(C2CC2)ncc(C(=O)C2=C(O)CCCC2=O)c1=O	100
O=C1CCCC(O)=C1C(=O)c1cnc(-c2ccsc2)n(C2CCOCC2)c1=O	95
CCCn1c(-c2ccccc2)ncc(C(=O)C2=C(O)C3CCC(C3)C2=O)c1=O (stereo not shown)	95

Now look at this one.
(Q) Fill in reported Plant response rating, Foxtail, Giant for this entry: `Cc1ccc(-n2c(-c3cc(F)cc(F)c3)ncc(C(=O)C3=C(O)CCCC3=O)c2=O)cc1`
(A) 98

====

Tested on: velvetleaf (Abutilon theophrasti)
Test: Test B pre-/postemergence plant response
Format: in vivo
Details: Postemergence, 125 g ai/ha; visual rating after 13 to 15 days, scale 0 (no effect) to 100 (complete control)
Entries and their Plant response rating, Velvetleaf values follow.
Field format: numeric only.

See these solved cases before continuing.
given smiles	Plant response rating, Velvetleaf
CC(C)Cc1ncc(C(=O)C2=C(O)CCCC2=O)c(=O)n1-c1ccccc1	100
CCCCn1c(CCC)ncc(C(=O)C2=C(O)CCCC2=O)c1=O	100
CCCc1ncc(C(=O)C2=C(O)CCCC2=O)c(=O)n1-c1cccc(C)c1	98

(Q) State its Plant response rating, Velvetleaf for this molecule: `CCCn1c(-c2ccccc2)ncc(C(=O)C2=C(O)CCCC2=O)c1=O`
(A) 98

====

Test system: chickweed (Stellaria media)
Test: Test B postemergence plant response
Type: in vivo
Conditions: Postemergence, 125 g ai/ha; visual rating after 13 to 15 days, scale 0 (no effect) to 100 (complete control)
assay metric: Plant response rating, Chickweed
Output spec: single numeric token, no unit.

A selection of reference data follows.
compound	reported
O=C1CCCC(O)=C1C(=O)c1cnc(C2CC2)n(-c2ccccc2)c1=O [Compound 87]	100
Cc1ccc(C)c(-n2c(-c3ccccc3)ncc(C(=O)C3=C(O)CCCC3=O)c2=O)c1 [Compound 29]	50

(Q) Return reported Plant response rating, Chickweed. Input compound: Cc1cccc(-n2c(-c3ccccc3)ncc(C(=O)C3=C(O)CCCC3=O)c2=O)c1F [Compound 58]
(A) 90

====

Tested on: cocklebur (Xanthium strumarium)
Test: Test B pre-/postemergence plant response
Assay type: in vivo
Conditions: Postemergence, 125 g ai/ha; visual rating after 13 to 15 days, scale 0 (no effect) to 100 (complete control)
assay metric: Plant response rating, Cocklebur
Give the figure by itself; no unit, no explanation.

given smiles	reported
Cc1ccc(Cl)cc1-n1c(-c2ccccc2)ncc(C(=O)C2=C(O)CCCC2=O)c1=O	85
O=C1CCCC(O)=C1C(=O)c1cnc(C2CC2)n(-c2ccccc2)c1=O	100
COCCOCCn1c(-c2ccccc2)ncc(C(=O)C2=C(O)CCCC2=O)c1=O	95
CC(C)Cc1ncc(C(=O)C2=C(O)CCCC2=O)c(=O)n1-c1ccccc1	90
CCCc1ncc(C(=O)C2=C(O)CCCC2=O)c(=O)n1CCC	90

(Q) Please respond with reported Plant response rating, Cocklebur (system cocklebur (Xanthium strumarium)) for `O=C1CCCC(O)=C1C(=O)c1cnc(C2CCCC2)n(-c2ccccc2)c1=O` .
(A) 98

(Q) Lab note: cocklebur (Xanthium strumarium) assay, enter Plant response rating, Cocklebur for `Cc1cccc(-n2c(-c3ccccc3)ncc(C(=O)C3=C(O)CCCC3=O)c2=O)c1F` here
(A) 85

(Q) Provide Plant response rating, Cocklebur, system cocklebur (Xanthium strumarium), entry `CCCCn1c(CCC)ncc(C(=O)C2=C(O)CCCC2=O)c1=O`
(A) 95
